PROTOCOL: Hemolytic activity in human RBC after 1 hr
Format: ADME, cell-based, Erythrocyte
APPLIED CONDITIONS: human red blood cells
HC50 at 1 h vs 200 µg/mL: less than gives true; not less than gives false.

>>> df
                                        mol  category
0  NCCCC[C@H](N)C(=O)N[C@@H](Cc1ccccc1)CN(CC(=O)N(Cc1ccccc1)Cc1ccccc1)C(=O)CC12CC3CC(CC(C3)C1)C2      true
1  NCCCC[C@H](N)C(=O)N[C@@H](Cc1ccccc1)CN(CC(=O)NCc1cc(C(F)(F)F)cc(C(F)(F)F)c1)C(=O)CC12CC3CC(CC(C3)C1)C2     false
2  CC(C)(C)c1ccc(CNC(=O)CN(C[C@H](Cc2ccccc2)NC(=O)[C@@H](N)CCCCN)C(=O)CC23CC4CC(CC(C4)C2)C3)cc1      true
3  NCCCC[C@H](N)C(=O)N[C@@H](Cc1ccccc1)CN(CC(=O)NCc1ccc(-c2ccccc2)cc1)C(=O)CC12CC3CC(CC(C3)C1)C2      true
4  N=C(N)NCCC[C@H](N)C(=O)N[C@@H](Cc1ccccc1)CN(CC(=O)NCc1cccc2ccccc12)C(=O)c1ccc2ccccc2c1     false
5  NCCCC[C@H](NC(=O)[C@@H](N)CCCCN)C(=O)N[C@@H](Cc1ccccc1)CN(CC(=O)NCC12CC3CC(CC(C3)C1)C2)C(=O)CC12CC3CC(CC(C3)C1)C2     false
6  N=C(N)NCCC[C@H](N)C(=O)N[C@@H](CCCCN)C(=O)N[C@@H](Cc1ccccc1)CN(CC(=O)NCC12CC3CC(CC(C3)C1)C2)C(=O)CC12CC3CC(CC(C3)C1)C2     false
7  NCCCC[C@H](N)C(=O)N[C@@H](Cc1ccccc1)CN(CC(=O)NCC12CC3CC(CC(C3)C1)C2)C(=O)CC12CC3CC(CC(C3)C1)C2      true
8  NCCCC[C@H](N)C(=O)N[C@@H](Cc1ccccc1)CN(CC(=O)NCc1cccc2ccccc12)C(=O)c1ccc2ccccc2c1     false
9  NCCCC[C@H](N)C(=O)N[C@@H](Cc1ccccc1)CN(CC(=O)NCc1cccc2ccccc12)C(=O)CC12CC3CC(CC(C3)C1)C2     false

Just for reference, ChEMBL document CHEMBL3853323 is where these values come from.
